Conditions: 303.15 K; 100 kPa; Liquid
measurement.name: mass density (kg/m3)
Please give a number only; it is taken to be in kg/m3.

Ask: Let me know recorded mass density for CCCCCCCCCCCCCC[P+](CCCCCC)(CCCCCC)CCCCCC.[Cl-] [trihexyl(tetradecyl)phosphonium chloride] , thanks.
Result: 886.5

Ask: Let me know recorded mass density for CCCCCCCCCCCCCC[P+](CCCCCC)(CCCCCC)CCCCCC.CS(=O)(=O)[O-] [trihexyltetradecylphosphonium methanesulfonate] , thanks.
Result: 925.7

Ask: Let me know recorded mass density for CCCCCCCCCCCCCC[P+](CCCCCC)(CCCCCC)CCCCCC.O=S(=O)([N-]S(=O)(=O)C(F)(F)F)C(F)(F)F , thanks.
Result: 1062.7

Ask: Let me know recorded mass density for CCCCCCCCCCCCCC[P+](CCCCCC)(CCCCCC)CCCCCC.N#C[N-]C#N [tetradecyl(trihexyl)phosphonium dicyanamide] , thanks.
Result: 895.9

Ask: Let me know recorded mass density for CCCCCCCCCCCCCC[P+](CCCCCC)(CCCCCC)CCCCCC.[Br-] [tetradecyltrihexylphosphonium bromide] , thanks.
Result: 950.3

====

Details: 333.15 K; 1000 kPa; Liquid
Mark Satisfied only for mass density values smaller than 900 kg/m3; exact matches and larger values are Not satisfied.

Illustrative cases are given below, each with its answer.
1) CCCCCCCCCCCCCC[P+](CCCCCC)(CCCCCC)CCCCCC.[Br-] [tetradecyltrihexylphosphonium bromide] :: Not satisfied
2) CCCCCCCCCCCCCC[P+](CCCCCC)(CCCCCC)CCCCCC.O=S(=O)([N-]S(=O)(=O)C(F)(F)F)C(F)(F)F :: Not satisfied

Ask: Would you kindly verify if mass density of CCCCCCCCCCCCCC[P+](CCCCCC)(CCCCCC)CCCCCC.[Cl-] [trihexyl(tetradecyl)phosphonium chloride] is strictly less than 900 kg/m3?
Result: Satisfied

====

Details: 303.15 K; 45000 kPa; Liquid
Numbers after ± are expanded uncertainties.
measurement.name: mass density

1. CCCCCCCCCCCCCC[P+](CCCCCC)(CCCCCC)CCCCCC.[Cl-] [trihexyl(tetradecyl)phosphonium chloride] :: 907.2 ± 2 kg/m3
2. CCCCCCCCCCCCCC[P+](CCCCCC)(CCCCCC)CCCCCC.N#C[N-]C#N [tetradecyl(trihexyl)phosphonium dicyanamide] :: 915.7 ± 1.8 kg/m3
3. CCCCCCCCCCCCCC[P+](CCCCCC)(CCCCCC)CCCCCC.O=S(=O)([N-]S(=O)(=O)C(F)(F)F)C(F)(F)F :: 1087.7 ± 2 kg/m3

Ask: Let me know recorded mass density for CCCCCCCCCCCCCC[P+](CCCCCC)(CCCCCC)CCCCCC.CS(=O)(=O)[O-] [trihexyltetradecylphosphonium methanesulfonate] , thanks.
Result: 948.5 ± 1.3 kg/m3

Ask: Let me know recorded mass density for CCCCCCCCCCCCCC[P+](CCCCCC)(CCCCCC)CCCCCC.[Br-] [tetradecyltrihexylphosphonium bromide] , thanks.
Result: 973.4 ± 0.9 kg/m3

====

Conditions: 313.15 K; 5000 kPa; Liquid
Numbers after ± are expanded uncertainties.
measurement.name: mass density

1) CCCCCCCCCCCCCC[P+](CCCCCC)(CCCCCC)CCCCCC.[Br-] [tetradecyltrihexylphosphonium bromide] :: 947 ± 0.7 kg/m3
2) CCCCCCCCCCCCCC[P+](CCCCCC)(CCCCCC)CCCCCC.CS(=O)(=O)[O-] [trihexyltetradecylphosphonium methanesulfonate] :: 922.5 ± 0.8 kg/m3
3) CCCCCCCCCCCCCC[P+](CCCCCC)(CCCCCC)CCCCCC.N#C[N-]C#N [tetradecyl(trihexyl)phosphonium dicyanamide] :: 892.7 ± 0.9 kg/m3
4) CCCCCCCCCCCCCC[P+](CCCCCC)(CCCCCC)CCCCCC.O=S(=O)([N-]S(=O)(=O)C(F)(F)F)C(F)(F)F :: 1058.6 ± 0.8 kg/m3

Ask: Let me know recorded mass density for CCCCCCCCCCCCCC[P+](CCCCCC)(CCCCCC)CCCCCC.[Cl-] [trihexyl(tetradecyl)phosphonium chloride] , thanks.
Result: 883.3 ± 1 kg/m3

====

Recorded measurements of mass density, one per entry
Settings: 293.15 K; 100 kPa; Liquid
Please give a number only; it is taken to be in kg/m3.

Record excerpt, results attached:
1) CCCCCCCCCCCCCC[P+](CCCCCC)(CCCCCC)CCCCCC.[Cl-] [trihexyl(tetradecyl)phosphonium chloride] :: 892.4
2) CCCCCCCCCCCCCC[P+](CCCCCC)(CCCCCC)CCCCCC.[Br-] [tetradecyltrihexylphosphonium bromide] :: 956.5
3) CCCCCCCCCCCCCC[P+](CCCCCC)(CCCCCC)CCCCCC.CS(=O)(=O)[O-] [trihexyltetradecylphosphonium methanesulfonate] :: 931.8
4) CCCCCCCCCCCCCC[P+](CCCCCC)(CCCCCC)CCCCCC.O=S(=O)([N-]S(=O)(=O)C(F)(F)F)C(F)(F)F :: 1070

Ask: Let me know recorded mass density for CCCCCCCCCCCCCC[P+](CCCCCC)(CCCCCC)CCCCCC.N#C[N-]C#N [tetradecyl(trihexyl)phosphonium dicyanamide] , thanks.
Result: 901.7

====

Conditions: 303.15 K; 5000 kPa; Liquid
measurement.name: mass density (kg/m3)
Please give a number only; it is taken to be in kg/m3.

Record excerpt, results attached:
1. CCCCCCCCCCCCCC[P+](CCCCCC)(CCCCCC)CCCCCC.[Cl-] [trihexyl(tetradecyl)phosphonium chloride] :: 889.1
2. CCCCCCCCCCCCCC[P+](CCCCCC)(CCCCCC)CCCCCC.O=S(=O)([N-]S(=O)(=O)C(F)(F)F)C(F)(F)F :: 1065.8
3. CCCCCCCCCCCCCC[P+](CCCCCC)(CCCCCC)CCCCCC.N#C[N-]C#N [tetradecyl(trihexyl)phosphonium dicyanamide] :: 898.3

Ask: Let me know recorded mass density for CCCCCCCCCCCCCC[P+](CCCCCC)(CCCCCC)CCCCCC.CS(=O)(=O)[O-] [trihexyltetradecylphosphonium methanesulfonate] , thanks.
Result: 928.4

Ask: Let me know recorded mass density for CCCCCCCCCCCCCC[P+](CCCCCC)(CCCCCC)CCCCCC.[Br-] [tetradecyltrihexylphosphonium bromide] , thanks.
Result: 953.1

====

Conditions: 283.15 K; 45000 kPa; Liquid
Lab note: compare mass density against 1000 kg/m3. Equal or greater, write Condition met. Smaller, write Condition not met.

Ask: Does the compound CCCCCCCCCCCCCC[P+](CCCCCC)(CCCCCC)CCCCCC.N#C[N-]C#N [tetradecyl(trihexyl)phosphonium dicyanamide] have recorded mass density that is 1000 kg/m3 or more?
Result: Condition not met

Ask: Does the compound CCCCCCCCCCCCCC[P+](CCCCCC)(CCCCCC)CCCCCC.O=S(=O)([N-]S(=O)(=O)C(F)(F)F)C(F)(F)F have recorded mass density that is 1000 kg/m3 or more?
Result: Condition met

Ask: Does the compound CCCCCCCCCCCCCC[P+](CCCCCC)(CCCCCC)CCCCCC.[Cl-] [trihexyl(tetradecyl)phosphonium chloride] have recorded mass density that is 1000 kg/m3 or more?
Result: Condition not met

Ask: Does the compound CCCCCCCCCCCCCC[P+](CCCCCC)(CCCCCC)CCCCCC.CS(=O)(=O)[O-] [trihexyltetradecylphosphonium methanesulfonate] have recorded mass density that is 1000 kg/m3 or more?
Result: Condition not met

====

Conditions: 283.15 K; 1000 kPa; Liquid
measurement.name: mass density (kg/m3)
Please give a number only; it is taken to be in kg/m3.

Record excerpt, results attached:
1. CCCCCCCCCCCCCC[P+](CCCCCC)(CCCCCC)CCCCCC.[Br-] [tetradecyltrihexylphosphonium bromide] :: 963.2
2. CCCCCCCCCCCCCC[P+](CCCCCC)(CCCCCC)CCCCCC.[Cl-] [trihexyl(tetradecyl)phosphonium chloride] :: 898.8
3. CCCCCCCCCCCCCC[P+](CCCCCC)(CCCCCC)CCCCCC.N#C[N-]C#N [tetradecyl(trihexyl)phosphonium dicyanamide] :: 908
4. CCCCCCCCCCCCCC[P+](CCCCCC)(CCCCCC)CCCCCC.O=S(=O)([N-]S(=O)(=O)C(F)(F)F)C(F)(F)F :: 1077.9

Next up:
Ask: Let me know recorded mass density for CCCCCCCCCCCCCC[P+](CCCCCC)(CCCCCC)CCCCCC.CS(=O)(=O)[O-] [trihexyltetradecylphosphonium methanesulfonate] , thanks.
Result: 938.4

====

Conditions: 303.15 K; 25000 kPa; Liquid
Recorded measurements of mass density, one per entry
Please give a number only; it is taken to be in kg/m3.

1. CCCCCCCCCCCCCC[P+](CCCCCC)(CCCCCC)CCCCCC.[Cl-] [trihexyl(tetradecyl)phosphonium chloride] :: 898.6
2. CCCCCCCCCCCCCC[P+](CCCCCC)(CCCCCC)CCCCCC.O=S(=O)([N-]S(=O)(=O)C(F)(F)F)C(F)(F)F :: 1077.4
3. CCCCCCCCCCCCCC[P+](CCCCCC)(CCCCCC)CCCCCC.N#C[N-]C#N [tetradecyl(trihexyl)phosphonium dicyanamide] :: 907.5
4. CCCCCCCCCCCCCC[P+](CCCCCC)(CCCCCC)CCCCCC.CS(=O)(=O)[O-] [trihexyltetradecylphosphonium methanesulfonate] :: 939

Next up:
Ask: Let me know recorded mass density for CCCCCCCCCCCCCC[P+](CCCCCC)(CCCCCC)CCCCCC.[Br-] [tetradecyltrihexylphosphonium bromide] , thanks.
Result: 963.8

This collection of values is drawn from the NIST ThermoML archive (doi:10.1021/je101232g).
